# System: SH-SY5Y cells
# Condition notes: PKIS2 primary screening, DQ Red BSA spot count; note: reference of the scale not given here
Readout label: DQ Spot
Answer field: number only, no words.

## Task What value of DQ Spot has been recorded for this entry: Nc1ncnc2scc(-c3ccc(NC(=O)Cc4cc(F)ccc4F)cc3)c12.O=C(O)C(F)(F)F [UNC10225107A]
## Result 96.58

## Task What value of DQ Spot has been recorded for this entry: CNC(=O)c1ccccc1Nc1nc(Nc2ccc(N3CCOCC3)cc2)ncc1Cl
## Result 111.32

## Task What value of DQ Spot has been recorded for this entry: COc1cccc(-c2cc(-c3c[nH]nc3-c3ccccn3)ccn2)c1 [UNC10225448A]
## Result 69.14

## Task What value of DQ Spot has been recorded for this entry: CN(C)CCNS(=O)(=O)c1ccc(-c2ccnc3[nH]ccc23)cc1 [UNC10225452A]
## Result 113.31

## Task What value of DQ Spot has been recorded for this entry: CN(C(=O)c1ccc(-c2cc(-c3c[nH]nc3-c3ccccn3)ccn2)cc1)C1CCOCC1 [UNC10225473A]
## Result 117.08

## Task What value of DQ Spot has been recorded for this entry: CN(c1ccc2c(c1)nc(NCc1ccc(F)cc1)n2C)c1ccnc(Nc2ccc(CS(C)(=O)=O)cc2)n1
## Result 106.18

## Task What value of DQ Spot has been recorded for this entry: Cc1ccc(-c2cc(-c3c[nH]nc3-c3ccccn3)ccn2)cc1 [UNC10225125A]
## Result 93.68

## Task What value of DQ Spot has been recorded for this entry: Cl.O=S(=O)(c1cccc(F)c1)c1ccc(Nc2ncnc3cc(Br)sc23)cc1Cl [UNC10224990A]
## Result 105.16

## Task What value of DQ Spot has been recorded for this entry: COc1cccc2c(-c3ccncc3)c(-c3ccc(F)cc3)nn12 [UNC10225305A]
## Result 98.66

## Task What value of DQ Spot has been recorded for this entry: CNc1nccc(-c2ccc3c(N)n[nH]c3c2)n1
## Result 96.17

## Task What value of DQ Spot has been recorded for this entry: CC(C)(CN)c1nc(-c2ccc(Cl)c(O)c2)c(-c2ccncc2)[nH]1.O=C(O)C(F)(F)F [UNC10225206A]
## Result 127.42

## Task What value of DQ Spot has been recorded for this entry: CN1C(=O)C(Nc2cc(Cl)c(O)c(Cl)c2)=C(c2ccc(Cl)cc2)C1=O [UNC10225212A]
## Result 97.02

## Task What value of DQ Spot has been recorded for this entry: Cc1ccc(-c2nc(Nc3ccncc3)c3ccccc3n2)s1
## Result 105.30

* * *

# Tested on: SH-SY5Y cells
# Assay overview: AK (adenylate kinase) release ToxiLight cytotoxicity assay; note: reference of the scale not given here
# Condition notes: PKIS2 primary screening
Provide the recorded AK for the entries that follow.

## Task What value of AK has been recorded for this entry: c1ccc(-c2ccnc3[nH]ccc23)cc1 [UNC10225337A]
## Result 289.20

## Task What value of AK has been recorded for this entry: Cc1ccc(-c2nc(Nc3ccncc3)c3ccccc3n2)s1
## Result 70.77

## Task What value of AK has been recorded for this entry: COc1cc2ncn(-c3cc(OCCCc4ccccc4)c(C(N)=O)s3)c2cc1OC [UNC10225450A]
## Result 94.56

## Task What value of AK has been recorded for this entry: CCn1c(-c2nonc2N)nc2cncc(CNC3CCNCC3)c21.Cl [UNC10225211A]
## Result 88.65

## Task What value of AK has been recorded for this entry: Fc1ccc(Nc2nccc(-c3c(-c4ccc(Cl)cc4)nn4ncccc34)n2)cc1F [UNC10225073A]
## Result 84.83

## Task What value of AK has been recorded for this entry: FC(F)(F)c1cc(Nc2nccc(-c3c(-c4ccc(Cl)cc4)nn4ncccc34)n2)ccc1Cl [UNC10225192A]
## Result 128.18

## Task What value of AK has been recorded for this entry: Cc1ccc(C(=O)Nc2ccc(Nc3ccnc4cc(-c5nccs5)ccc34)cc2O)cc1.Cl [UNC10225432A]
## Result 74.29

## Task What value of AK has been recorded for this entry: Cc1ccc(NC(=O)c2ccnc(N3CCCCC3)c2)cc1-c1ccc(C(=O)NCC2CC2)cc1 [UNC10225036A]
## Result 94.08

## Task What value of AK has been recorded for this entry: Cc1cccc(Nc2nc(NCCN)ncc2C(N)=O)c1 [UNC10225029A]
## Result 118.19

## Task What value of AK has been recorded for this entry: Cc1ccc(NC(=O)c2ccnc(N3CCN(C)CC3)c2)cc1-c1ccc(C(=O)NCC2CC2)cc1 [UNC10225009A]
## Result 154.31

## Task What value of AK has been recorded for this entry: CN(C)CCOc1ccc(-c2cc(-c3ccc(Cl)c(O)c3)c(-c3ccncc3)[nH]2)cc1.Cl.Cl [UNC10225395A]
## Result 117.96

## Task What value of AK has been recorded for this entry: CCS(=O)(=O)c1ccc(OC)c(Nc2ncc(-c3ccc(F)cc3)o2)c1
## Result 64.95

## Task What value of AK has been recorded for this entry: Nc1nc(-c2ccccc2F)c(-c2ccnc3ccccc23)s1 [UNC10225301A]
## Result 75.40

## Task What value of AK has been recorded for this entry: N#Cc1ccc(-c2cc(-c3c[nH]nc3-c3ccccn3)ccn2)cc1 [UNC10225072A]
## Result 65.14

## Task What value of AK has been recorded for this entry: Cc1cccc(-c2nc(Nc3ccncc3)c3ccccc3n2)n1
## Result 89.05

## Task What value of AK has been recorded for this entry: Cc1ccc(C)c(NC(=O)NC2CCN(c3ccnc(Nc4ccc(F)cc4)n3)C2)c1 (stereo not drawn)
## Result 98.80

## Task What value of AK has been recorded for this entry: Cc1ccc(NC(=O)c2ccc(Cl)c(Cl)c2)cc1-c1ccc(C(=O)Nc2ccncc2)cc1 [UNC10225151A]
## Result 125.83

## Task What value of AK has been recorded for this entry: Cc1cccc2c(-c3ccncc3)c(-c3ccc(F)cc3)nn12.Cl [UNC10225316A]
## Result 93.04
